All values here come from paper PMC12138161.

pIC50: −log10 of the molar value.
Endpoint: pIC50. System: P. falciparum PMX (Plasmodium falciparum, UniProt Q8IAS0). Items follow.
Sequence (Q8IAS0 222-573): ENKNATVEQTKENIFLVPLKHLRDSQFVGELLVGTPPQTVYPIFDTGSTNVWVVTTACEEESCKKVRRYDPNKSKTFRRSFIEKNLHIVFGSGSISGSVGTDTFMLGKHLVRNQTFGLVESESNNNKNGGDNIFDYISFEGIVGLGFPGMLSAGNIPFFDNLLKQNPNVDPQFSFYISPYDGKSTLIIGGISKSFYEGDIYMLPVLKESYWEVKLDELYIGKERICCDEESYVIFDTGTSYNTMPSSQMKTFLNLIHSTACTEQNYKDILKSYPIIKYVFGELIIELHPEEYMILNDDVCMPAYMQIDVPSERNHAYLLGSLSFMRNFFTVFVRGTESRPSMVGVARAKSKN
PROPERTY NAME: pIC50

Example results:
Item CN1C(=N)NC2(c3cc(F)ccc3F)CN(c3ncsc3-c3ccccc3)CC2C1=O (centres unmarked) has what recorded pIC50? 6.33

Another compound: CN1C(=N)NC2(c3cc(F)ccc3F)CN(c3n[nH]cc3-c3ccccc3)CC2C1=O (centres unmarked) 7.19

Another compound: CN1C(=N)NC2(c3cc(F)ccc3F)CN(c3ncccc3-c3ccc(Cl)s3)CC2C1=O (centres unmarked) 7.15

Another compound: Cc1ccccc1-c1cccnc1N1CC2C(=O)N(C)C(=N)NC2(c2cc(F)ccc2F)C1 (centres unmarked) 5.68

[a] CN1C(=N)NC2(c3cc(F)ccc3F)CN(c3ncccc3-c3ccccc3C(F)(F)F)CC2C1=O (centres unmarked)
[b] COc1ccc(-c2cccnc2N2CC3C(=O)N(C)C(=N)NC3(c3cc(F)ccc3F)C2)cc1 (centres unmarked)
Short answer wanted: higher pIC50, a or b ? Kindly state the label of the option you pick. b

[A] CN1C(=N)NC2(c3cc(F)ccc3F)CN(c3nn(C)cc3-c3ccccc3)CC2C1=O (centres unmarked)
[B] CN1C(=N)NC2(c3cc(F)ccc3F)CN(c3ncccc3-c3ccc(Cl)cc3C(F)(F)F)CC2C1=O (centres unmarked)
Looking at A and B , which one comes out lower in pIC50 terms? Kindly state the label of the option you pick. A

====

SYSTEM UNDER TEST: recombinant Plasmodium vivax PMV (Plasmodium vivax)
Construct: PvPMV (residues R35–R476) was prepared similarly; gp67 signal peptide (N); TEV protease cleavage site + FLAG tag (C)
Sequence (A5K302 35-476): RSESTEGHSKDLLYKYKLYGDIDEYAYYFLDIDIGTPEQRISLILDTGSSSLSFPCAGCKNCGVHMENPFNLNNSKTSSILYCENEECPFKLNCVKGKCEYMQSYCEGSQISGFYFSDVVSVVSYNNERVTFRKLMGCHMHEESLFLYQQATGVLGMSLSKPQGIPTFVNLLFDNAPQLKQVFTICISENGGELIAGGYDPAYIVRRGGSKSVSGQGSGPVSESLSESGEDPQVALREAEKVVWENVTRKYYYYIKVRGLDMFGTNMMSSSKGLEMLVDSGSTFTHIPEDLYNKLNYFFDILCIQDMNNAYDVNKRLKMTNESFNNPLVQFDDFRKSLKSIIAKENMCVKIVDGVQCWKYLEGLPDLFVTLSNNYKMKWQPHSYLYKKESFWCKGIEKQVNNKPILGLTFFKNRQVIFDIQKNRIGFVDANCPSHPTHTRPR
TEST SUMMARY: Plasmepsin V fluorogenic substrate cleavage assay
CONDITION PARAMETERS: recombinant P. vivax PMV; average of three independent experiments; read-out: PMV IC50 (SD)
PROPERTY NAME: IC50 (nM)

[1] Cc1ccccc1-c1cccnc1N1CC2C(=O)N(C)C(=N)NC2(c2cc(F)ccc2F)C1 (stereo not shown)
[2] COc1ccc(-c2cccnc2N2CC3C(=O)N(C)C(=N)NC3(c3cc(F)ccc3F)C2)cc1 (stereo not shown)
[3] CN1C(=N)NC2(c3cc(F)ccc3F)CN(c3ncccc3-c3ccc(Cl)cc3)CC2C1=O (stereo not shown)
[4] CN1C(=N)NC2(c3cc(F)ccc3F)CN(c3ncccc3-c3cccs3)CC2C1=O (stereo not shown)
Ranking criterion: IC50, increasing numeric value. Items: as listed above. In your reply, arrange the labels in the requested order. 3, 1, 4, 2
(3: 357 nM, 1: 610 nM, 4: 1230 nM, 2: 3600 nM)
